- target-under-test: T1, BSA (bovine serum albumin) (bovine (송아지 혈청 알부민), UniProt P02769 25-607)
- T1 construct: Negative control antigen of the phage ELISA; also called 송아지 혈청 알부민
- T1 sequence (P02769 25-607 limits assumed): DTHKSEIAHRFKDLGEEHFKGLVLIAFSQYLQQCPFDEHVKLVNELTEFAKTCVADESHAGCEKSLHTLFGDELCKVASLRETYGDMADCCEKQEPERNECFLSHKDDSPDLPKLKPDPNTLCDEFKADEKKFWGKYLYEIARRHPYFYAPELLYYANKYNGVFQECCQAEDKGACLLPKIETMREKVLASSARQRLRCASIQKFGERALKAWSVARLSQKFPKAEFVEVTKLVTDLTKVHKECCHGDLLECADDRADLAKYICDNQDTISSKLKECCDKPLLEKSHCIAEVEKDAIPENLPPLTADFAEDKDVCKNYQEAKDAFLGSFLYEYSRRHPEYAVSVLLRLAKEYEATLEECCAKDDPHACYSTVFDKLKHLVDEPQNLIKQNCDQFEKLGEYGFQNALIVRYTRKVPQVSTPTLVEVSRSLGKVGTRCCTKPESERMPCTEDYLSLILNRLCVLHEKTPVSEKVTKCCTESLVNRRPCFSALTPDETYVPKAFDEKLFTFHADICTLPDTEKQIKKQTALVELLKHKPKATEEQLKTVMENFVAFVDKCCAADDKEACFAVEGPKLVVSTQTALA
- experiment: phage ELISA, 1% BSA coated, anti-M13 peroxidase, OD 492 nm
experimental-endpoint: binding result

binder | recorded-measurement
SC06-087 (scFv) scFv: EVQLVESGGGLVKPGGSLRLSCAASGFTFSSNSMNWVRQAPGKGLEWVSFISSSSTYIYYADSVKGRFTISRDNAKNSLYLQMNSLRAEDTAVYYCARESAAGISYDAFDIWGQGTMVTVSSGTGGSGGTGSGTGGSTQSALTQPASVSGSPGQSITISCTGTSSDVGGYKYVSWYQQHPGKAPKLMIYEVSNRPSGVSNRFSGSKSGSTASLTISGLQAEDEADYYCSSYTSSSTLGVFGTGTKVTVL | no binding
SC06-071 (scFv) scFv: EVQLVESGGGVVQPGRSLRLSCAASGFTFSSYGMHWVRQAPGKGLEWVAMIWSDGSNKYYADSVKGRFTISRDNSKNTLYLQMNSLRVEDTAVYYCASNYGSGSYWGGFDYWGQGTLVTVSSGTGGSGGTGSGTGGSTQSALTQPASVSGSPGQSITISCTGTSSDVGGYNLVSWYQQHPGKAPKLMIYEGSKRPSGVSNRFFGSKSGDTASLTISGLQAEDEADYYCSSYTTSSTHVFGTGTKVTVL | no binding
SC06-050 (scFv, also called SC05-050) scFv: EVQLVESGPEVKKPGASVKVSCEASGYNLDNYGITWVRQAPGQGLEWLGWISAYNAKTEYGQRLQGRVTMTTDTATSTAYLELRSLRSDDTAVYYCARVLGYRGGWYDEGDAFDVWGQGTMVTVSSGTGGSGGTGSGTGGSTDIQLTQSPSFLSASVGDRVTITCRASQGIRSHLAWYQQKAGKAPKLLIYAASTLQSGVPSRFSGSGSGTEFTLTISSLQPDDFAAYYCQQLNTYPITFGQGTRLEIK | no binding
